Target: Neurotensin receptor type 1 (Homo sapiens, UniProt P30989)
Sequence (P30989 whole entry): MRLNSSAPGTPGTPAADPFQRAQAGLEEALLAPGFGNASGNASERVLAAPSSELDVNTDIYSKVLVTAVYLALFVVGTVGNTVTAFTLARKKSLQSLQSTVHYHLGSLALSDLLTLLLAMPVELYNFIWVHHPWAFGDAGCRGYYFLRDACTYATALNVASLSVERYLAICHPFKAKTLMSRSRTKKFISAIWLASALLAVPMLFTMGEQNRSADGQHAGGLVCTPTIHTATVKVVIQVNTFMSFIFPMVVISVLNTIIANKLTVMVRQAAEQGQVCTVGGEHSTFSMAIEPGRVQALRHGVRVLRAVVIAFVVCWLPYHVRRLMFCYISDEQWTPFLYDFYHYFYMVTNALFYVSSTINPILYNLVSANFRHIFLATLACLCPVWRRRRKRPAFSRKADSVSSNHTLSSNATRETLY
Assay: Antagonist activity at human NTS1 receptor expressed in CHOK1 cells assessed as inhibition of intracellular calcium elevation pretreated 30 mins before with SR-48692 by FLIPR assay
readout_type: IC50

**Query** Given CC(C)CC(NC(=O)OCC1c2ccccc2-c2ccccc21)C(=O)O (configuration not stated) , state its recorded IC50.
**Result** 3.79 nM

**Query** Further, for CC(C)C[C@@H](NC(=O)Cn1ccc2cc(NS(=O)(=O)c3cccc4cccnc34)ccc21)C(=O)O ?
**Result** 3.76 nM
